tested on: IGROV-1; test: NCI tumour cell line growth inhibition, 48 h
The source made the active and inactive calls. No stated cut-off is given here; in the data, active = GI50 up to about 1.1 µM and inactive = higher.
Can you tell me GI50 for the items I'm about to list?

Cc1ccc(N2C[N+](c3ccccc3)=NC(c3ccccc3)=N2)cc1 | 48.4 µM (inactive)
COC(=O)[C@]12CC[C@H]3CN(C(=O)OCc4ccccc4)[C@H]([C@H]31)[C@H](c1ccco1)N2S(=O)(=O)c1ccc(C)cc1 | 20.5 µM (inactive)
Cc1ccc2cccc3c2c1CC1(C3=O)S(=O)(=O)OCCOS1(=O)=O | > 100 µM (inactive)
CCOC(=O)CCC(NC(=O)c1ccc(Nc2nc3cc(C(F)(F)F)ccc3nc2-c2ccccc2)cc1)C(=O)OCC (stereo not given) | 14.7 µM (inactive)

### Prompt What does the data say about its GI50? Entry: O=[N+]([O-])c1ccc2c(c1)OCCOCCOc1ccc([N+](=O)[O-])cc1OCCOCCO2
### Response > 100 µM (inactive)

----------
Can you tell me GI50 for the items I'm about to list?
system: SK-MEL-28; assay: NCI tumour cell line growth inhibition, 48 h
The source made the active and inactive calls. Cut-off read from the data, not from the text of the source: active = GI50 up to about 1.1 µM and inactive = higher.

Reference set (5 entries):
COc1cc2c(cc1O)NC(=S)[C@@H]1CCCN1C2=O | > 100 µM (inactive)
CN(c1ccccc1)c1cc2ccccc2nn1 | > 100 µM (inactive)
COC(=O)C1(Cc2ccccc2)Cc2cc3c(cc2C1)CCC3 | 41.1 µM (inactive)
CCOC(=O)N1CCC(=O)C[C@@H]1C/C=C/P1(=O)O[C@H](c2ccccc2)C(C)N1C(C)C (stereo partly specified) | > 100 µM (inactive)
Cc1ccc(OP(=O)(Oc2ccc(C)cc2)N2C=Cc3ccccc3C2C#N)cc1 (stereo unspecified) | > 100 µM (inactive)

### Prompt What does the data say about its GI50? Entry: Cc1nc(Nc2ccccc2Cl)sc1C(=O)CC(=O)C(=O)Nc1c(Cl)cccc1Cl
### Response 26.2 µM (inactive)

----------
system: KM12; assay: NCI tumour cell line growth inhibition, 48 h
Active and inactive are the calls of the source. Cut-off read from the data, not from the text of the source: active = GI50 up to about 1.1 µM and inactive = higher.
Can you tell me GI50 for the items I'm about to list?

O=C1CCN2c3ccccc3[C@H]3Cc4cccc(c4[C@@H]2C3)CCO1 | 34.9 µM (inactive)
CC(=O)C1=CSC2[C@H](NC(=O)Cc3ccccc3)C(=O)N2C1C(=O)OC(c1ccccc1)c1ccccc1 (stereo partly specified) | > 100 µM (inactive)
OC[C@H]1N[C@H](CO)[C@@H](O)[C@H]1O | > 100 µM (inactive)
Cc1cccc2sc(NC(=O)NS(=O)(=O)n3cnc4ccccc43)nc12 | 30.4 µM (inactive)
Cc1ccc(C(=C2Sc3ccccc3S2)C(=C2Sc3ccccc3S2)c2ccc(C)s2)s1 | > 100 µM (inactive)

Hey, can you go through the list below and give me GI50 for every item?
1. CCc1ccc(Nc2cc(=O)[nH]c(=S)n2C)cc1
2. c1ccc([C@@H]2N[C@@]3(CO[Si](c4ccccc4)(c4ccccc4)c4ccccc4)CC[C@H]4CN[C@@H]2[C@H]43)cc1
3. Cc1c2cccc-2ccc2c3ccccc3n(C(=O)c3ccc(Cl)cc3)c12

### Response
1. > 100 µM (inactive)
2. 3.62 µM (inactive)
3. 26.7 µM (inactive)

Hey, can you go through the list below and give me GI50 for every item?
1. COC(=O)C1(Cc2ccccc2)Cc2cc3c(cc2C1)CCC3
2. O=c1[nH]c(-c2ccccc2)nc2cc([N+](=O)[O-])c(/C(Cl)=C/c3ccccc3)cc12
3. CC(C)C1=C(Cc2ccccc2)C(=O)O/C1=C\c1ccc(O)c(Cl)c1
4. CCN(CC)CCOc1ccc(N2Cc3cc(OC)c(OC)cc3C2=O)cc1
5. Cc1ccc(C2=C(C#N)C(=O)N3CCN=C3S2)cc1
6. c1ccc2c(CNCCCCCCNCc3cccc4ccccc34)cccc2c1
7. O=C1/C(=C/c2ccccc2)CCc2ccccc21

### Response
22.3 µM (inactive)
26.2 µM (inactive)
18.1 µM (inactive)
> 100 µM (inactive)
> 100 µM (inactive)
3.66 µM (inactive)
18 µM (inactive)

### Prompt Look up GI50 with KM12 for this compound: CC(C)C(Sc1nc(-c2ccccc2)c(-c2ccccc2)[nH]1)C(=O)NN (stereo unspecified)
### Response > 100 µM (inactive)
